# Species: Rattus norvegicus
# test.description: DrugMatrix - Regimen: Daily Repeat
# Assay type: toxicity, organism-based, Sprague-Dawley
# Set-up: regimen Daily Repeat, gender Male, age 6-8 weeks
# condition.description: in vivo, po, 0 mg/kg, 72 h, tissue Blood, route oral GAVAGE, dose level Control, time 3 day, vehicle 100 % WATER
So I've got a bunch of molecules here, and I need their LEUKOCYTE COUNT values.
Answers are plain numbers, in x10E3/uL.

- molecule: "CN(C)CCCN1c2ccccc2Sc2ccc(Cl)cc21 [CHLORPROMAZINE]"
  LEUKOCYTE COUNT, x10E3/uL: 12.07
- molecule: "CNNCc1ccc(C(=O)NC(C)C)cc1 [PROCARBAZINE]"
  LEUKOCYTE COUNT, x10E3/uL: 8.43
- molecule: "C[C@](N)(Cc1ccc(O)c(O)c1)C(=O)O [METHYLDOPA]"
  LEUKOCYTE COUNT, x10E3/uL: 11.83
- molecule: "C[C@H](CS)C(=O)N1CCC[C@H]1C(=O)O [CAPTOPRIL]"
  LEUKOCYTE COUNT, x10E3/uL: 11.48
- molecule: "C=CCC1(C(C)CCC)C(=O)NC(=O)NC1=O (stereo not given) [SECOBARBITAL]"
  LEUKOCYTE COUNT, x10E3/uL: 10.2
- molecule: "Cn1cc[nH]c1=S [METHIMAZOLE]"
  LEUKOCYTE COUNT, x10E3/uL: 9.43
- molecule: "Clc1cccc(Cl)c1N=C1NCCN1 [CLONIDINE]"
  LEUKOCYTE COUNT, x10E3/uL: 15.35
- molecule: "C[C@H]1c2cccc(O)c2C(=O)C2=C(O)[C@]3(O)C(=O)C(C(N)=O)=C(O)[C@@H](N(C)C)[C@@H]3[C@@H](O)[C@@H]21.O [DOXYCYCLINE]"
  LEUKOCYTE COUNT, x10E3/uL: 13.43
- molecule: "c1ccc([C@H]2CN3CCSC3=N2)cc1 [LEVAMISOLE]"
  LEUKOCYTE COUNT, x10E3/uL: 13.85

Would you kindly look at the next entry?
// query Any idea what LEUKOCYTE COUNT was measured for COc1cc2nc(N3CCN(C(=O)C4COc5ccccc5O4)CC3)nc(N)c2cc1OC (stereo not given) [DOXAZOSIN] ?
// result 13.43

###

# Species on record: Rattus norvegicus
# test.description: DrugMatrix - Regimen: Daily Repeat
# Format: toxicity, organism-based, Sprague-Dawley
# Design: regimen Daily Repeat, gender Male, age 6-8 weeks
# condition.description: in vivo, po, 0 mg/kg, 120 h, tissue Blood, route oral GAVAGE, dose level Control, time 5 day, vehicle .5 % CMC
So I've got a bunch of compounds here, and I need their EOSINOPHIL values.
One number for each entry, in %.

- compound: "CCOP(=S)(OCC)Oc1nc(Cl)c(Cl)cc1Cl"
  metric: "EOSINOPHIL"
  quantity.unit: "%"
  assay.result: 0.67

Go through the items and report each one's EOSINOPHIL.
1. Cc1ccc(/N=C/N(C)/C=N/c2ccc(C)cc2C)c(C)c1
2. Cc1nc2n(c(=O)c1CCN1CCC(c3noc4cc(F)ccc34)CC1)CCCC2
3. CCCCc1oc2ccccc2c1C(=O)c1cc(I)c(OCCN(CC)CC)c(I)c1

// result
0.17
0.17
0.17
